Form field: Activity (one value per entry).
Target: Protein cereblon/Eukaryotic peptide chain release factor GTP-binding subunit ERF3A (Homo sapiens, UniProt Q96SW2+P15170)
Sequence (P15170 whole entry, looked up): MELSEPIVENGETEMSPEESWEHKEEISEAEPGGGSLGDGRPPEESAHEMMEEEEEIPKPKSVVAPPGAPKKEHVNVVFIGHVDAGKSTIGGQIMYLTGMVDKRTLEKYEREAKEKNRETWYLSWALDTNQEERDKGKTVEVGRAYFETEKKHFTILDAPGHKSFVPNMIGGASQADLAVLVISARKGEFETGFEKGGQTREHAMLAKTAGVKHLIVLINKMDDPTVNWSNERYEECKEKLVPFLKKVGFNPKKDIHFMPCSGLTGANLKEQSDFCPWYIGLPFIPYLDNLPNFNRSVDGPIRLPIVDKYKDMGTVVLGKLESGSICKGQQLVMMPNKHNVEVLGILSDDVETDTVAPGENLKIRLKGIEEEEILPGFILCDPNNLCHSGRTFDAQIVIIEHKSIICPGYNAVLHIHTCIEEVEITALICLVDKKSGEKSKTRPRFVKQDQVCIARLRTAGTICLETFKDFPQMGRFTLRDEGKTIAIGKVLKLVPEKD
Sequence (Q96SW2 whole entry, looked up): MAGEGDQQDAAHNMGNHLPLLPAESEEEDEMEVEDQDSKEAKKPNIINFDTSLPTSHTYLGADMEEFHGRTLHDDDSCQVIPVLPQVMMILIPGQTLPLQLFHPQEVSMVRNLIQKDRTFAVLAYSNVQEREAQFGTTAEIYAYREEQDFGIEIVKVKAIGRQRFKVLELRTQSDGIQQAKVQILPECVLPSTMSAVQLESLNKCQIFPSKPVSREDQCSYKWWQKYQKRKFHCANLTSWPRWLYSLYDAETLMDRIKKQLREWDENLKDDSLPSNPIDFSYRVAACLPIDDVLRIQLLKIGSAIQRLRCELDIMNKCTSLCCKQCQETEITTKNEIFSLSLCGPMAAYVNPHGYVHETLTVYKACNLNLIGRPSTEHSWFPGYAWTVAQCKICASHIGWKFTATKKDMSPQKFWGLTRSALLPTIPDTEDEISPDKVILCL
Test: Molecular glue activity at CRBN/GSPT1 in human 22Rv1 cells assessed as induction of GSPT1 degradation at 0.1 uM incubated for 24 hrs by Western blot analysis relative to control
Type: cell-based
API: value field is a number in %; no unit string.

- molecule: "CC(C)(c1ccc(OCC2CCOC2)cc1)c1cc(Cl)c(OCC2CCN(C(=O)CCCCCNc3ccc4c(c3)C(=O)N(C3CCC(=O)NC3=O)C4=O)CC2)c(C#N)c1 (centres undefined)"
  Activity / %: 96.1
- molecule: "CC(C)(c1ccc(OCC2CN(S(C)(=O)=O)C2)cc1)c1cc(Cl)c(OCC2CCN(C(=O)CCCCCNc3ccc4c(c3)C(=O)N(C3CCC(=O)NC3=O)C4=O)CC2)c(C#N)c1 (centres undefined)"
  Activity / %: 96.8
- molecule: "CC(C)(c1ccc(OCc2ccncn2)cc1)c1cc(Cl)c(OCC2CCN(C(=O)CCCCCNc3ccc4c(c3)C(=O)N(C3CCC(=O)NC3=O)C4=O)CC2)c(C#N)c1 (centres undefined)"
  Activity / %: 97.2
- molecule: "COc1ccc(C(C)(C)c2ccc(OCC3CCN(C(=O)CCCCCNc4ccc5c(c4)C(=O)N(C4CCC(=O)NC4=O)C5=O)CC3)cc2)cc1 (centres undefined)"
  Activity / %: 94
- molecule: "CC1(COc2ccc(C(C)(C)c3cc(Cl)c(OCC4CCN(C(=O)CCCCCNc5ccc6c(c5)C(=O)N(C5CCC(=O)NC5=O)C6=O)CC4)c(C#N)c3)cc2)COC1 (centres undefined)"
  Activity / %: 96.1

For the molecule COc1ccc(C(C)(C)c2cc(Cl)c(OCC3CCN(C(=O)CCCCCNc4cc5c(cc4F)C(=O)N(C4CCC(=O)NC4=O)C5=O)CC3)c(C#N)c2)cc1 (centres undefined) , give its reported Activity.
88.6

For the molecule CC(C)(c1ccc(OCc2ccccc2)cc1)c1cc(Cl)c(OCC2CCN(C(=O)CCCCCNc3ccc4c(c3)C(=O)N(C3CCC(=O)NC3=O)C4=O)CC2)c(C#N)c1 (centres undefined) , give its reported Activity.
97.3

For the molecule CC(C)(c1ccc(OCCCCl)cc1)c1ccc(OCC2CCN(C(=O)CCCCCNc3ccc4c(c3)C(=O)N(C3CCC(=O)NC3=O)C4=O)CC2)cc1 (centres undefined) , give its reported Activity.
92.8

For the molecule CC(C)(c1ccc(OCC2COC2)cc1)c1cc(Cl)c(OCC2CCN(C(=O)CCCCCNc3ccc4c(c3)C(=O)N(C3CCC(=O)NC3=O)C4=O)CC2)c(C#N)c1 (centres undefined) , give its reported Activity.
96.5

For the molecule CC(C)(c1ccc(OCC2CCN(C(=O)CCCCCNc3ccc4c(c3)C(=O)N(C3CCC(=O)NC3=O)C4=O)CC2)cc1)c1ccc(OC[C@H](O)CCl)cc1 (some centres undefined) , give its reported Activity.
94.2

For the molecule CC(C)(c1ccc(OCc2cncnc2)cc1)c1cc(Cl)c(OCC2CCN(C(=O)CCCCCNc3ccc4c(c3)C(=O)N(C3CCC(=O)NC3=O)C4=O)CC2)c(C#N)c1 (centres undefined) , give its reported Activity.
97.5

For the molecule COc1ccc(C(C)(C)c2cc(Cl)c(OCC3CCN(C(=O)CCCCCNc4ccc5c(c4)C(=O)N(C4CCC(=O)NC4=O)C5=O)CC3)c(Cl)c2)cc1 (centres undefined) , give its reported Activity.
93.3
